System: HBV rcDNA in HepDE19 cells
assay-comment: HepDE19 assay with bDNA quantitation of HBV rcDNA
Assay type: cell-based, hepatitis B virus
conditions-used: Hepatitis B virus, HepDE19, 168 h, HepDE19 cells, 7 day incubation, rcDNA measured by Quantigene 2.0 bDNA assay; top concentration 25 µM; read-out: DE-19bDNA EC50
So basically, if EC50 comes in under 500 nM it's Condition met, and if it's 500 nM or more it's Condition not met.

molecule="CC(c1n[nH]c(=O)c2cc(F)c(F)cc12)N(C)C(=O)Nc1ccc(F)c(C(F)F)c1 (racemic)" target_of_assay="HBV rcDNA in HepDE19 cells" label_class="Condition met"

Query string: Problem: For the molecule CC(c1n[nH]c(=O)c2cc(F)c(F)cc12)N(C)C(=O)c1ccc(Cl)c(F)c1 (racemic) , is EC50 under 500 nM?
Result string: Condition met

Query string: Cool, now CC(c1n[nH]c(=O)c2cc(F)c(F)cc12)N(C)C(=O)[C@@H]1Cc2ccccc2N1 (stereo partly shown)
Result string: Condition not met

Query string: Cool, now CC(c1n[nH]c(=O)c2cc(F)c(F)cc12)N(C)C(=O)c1cc2ccc(F)cc2[nH]1 (racemic)
Result string: Condition met

Query string: Cool, now CC(c1n[nH]c(=O)c2cc(F)c(F)cc12)N(C)C(=O)c1ccc(F)c(F)c1 (racemic)
Result string: Condition not met

Query string: Cool, now CC(c1n[nH]c(=O)c2cc(F)c(F)cc12)N(C)C(=O)c1cc(F)c(F)c(F)c1 (racemic)
Result string: Condition not met

Query string: Cool, now CC(C)CN(C(=O)Nc1ccc(F)cc1)C(C)c1n[nH]c(=O)c2ccccc12 (racemic)
Result string: Condition met

Query string: Cool, now CC(c1n[nH]c(=O)c2cc(F)c(F)cc12)N(C)C(=O)c1cnc(C(F)(F)F)c(F)c1 (racemic)
Result string: Condition not met

Query string: Cool, now CC(C)CN(C(=O)Nc1ccc(F)c(Cl)c1)C(C)c1n[nH]c(=O)c2cc(F)c(F)cc12 (racemic)
Result string: Condition met

Query string: Cool, now CC(C)CN(C(=O)NC1CC1)C(C)c1nn(C)c(=O)c2cc(F)c(F)cc12 (racemic)
Result string: Condition not met

Query string: Cool, now CC(c1n[nH]c(=O)c2c(F)cccc12)N(C)C(=O)Nc1ccc(F)c(F)c1 (stereo not shown)
Result string: Condition not met

Query string: Cool, now CCN(C(=O)c1cc2c(F)c(F)ccc2[nH]1)C(C)c1n[nH]c(=O)c2cc(F)c(F)cc12 (racemic)
Result string: Condition met

Query string: Cool, now CC(c1n[nH]c(=O)c2cc(F)c(F)cc12)N(C)C(=O)c1ccc(F)c(Cl)c1 (racemic)
Result string: Condition not met

Query string: Cool, now CC(c1n[nH]c(=O)c2cc(F)c(F)cc12)N(C)C(=O)c1ccc(F)c(C(F)F)c1 (racemic)
Result string: Condition met

Query string: Cool, now CC(C)CN(C(=O)c1cc2ccccc2[nH]1)C(C)c1n[nH]c(=O)c2cc(F)c(F)cc12 (racemic)
Result string: Condition met

Query string: Cool, now CC(c1n[nH]c(=O)c2cc(F)c(F)cc12)N(C)C(=O)c1ccc(C(F)(F)F)cc1 (racemic)
Result string: Condition met

Query string: Cool, now CC(C)CN(C(=O)Nc1ccc(F)cc1)C(C)c1n[nH]c(=O)c2cc(F)ccc12 (racemic)
Result string: Condition met

Query string: Cool, now CC(c1n[nH]c(=O)c2cc(F)c(F)cc12)N(C)C(=O)c1cc2c(F)c(F)ccc2[nH]1 (racemic)
Result string: Condition met

Query string: Cool, now CC(C)CN(C(=O)Nc1ccc(F)c(Cl)c1)C(C)c1nn(C)c(=O)c2ccccc12 (racemic)
Result string: Condition met

Query string: Cool, now CC(c1n[nH]c(=O)c2cc(F)c(F)cc12)N(C)C(=O)c1ccc(Br)c(F)c1 (racemic)
Result string: Condition met

Query string: Cool, now CC(c1n[nH]c(=O)c2cc(F)c(F)cc12)N(C)C(=O)c1cccc(C(F)F)c1 (racemic)
Result string: Condition met

Query string: Cool, now C[C@@H](c1n[nH]c(=O)c2cc(F)c(F)cc12)N(C)C(=O)Nc1ccc(F)c(Cl)c1
Result string: Condition not met

====

System: HBV rcDNA in HepDE19 cells
assay-comment: HepDE19 assay with bDNA quantitation of HBV rcDNA
Assay type: cell-based, hepatitis B virus
conditions-used: Hepatitis B virus, HepDE19, 168 h, HepDE19 cells, 7 day incubation, rcDNA measured by Quantigene 2.0 bDNA assay; top concentration 25 µM; read-out: DE-19bDNA EC50
Procedure: HepDE19 Assay With bDNA Quantitation of HBV rcDNA HepDE19 (50,000 cells/well) were plated in 96-well collagen-coated tissue-culture treated microtiter plates in DMEM/F12 medium supplemented with 10% fetal bovine serum, 1% penicillin-streptomycin and 1 µg/mL tetracycline and incubated in a humidified incubator at 37° C. and 5% CO2 overnight. Next day, the cells were switched to fresh medium without tetracycline and incubated for 4 hours at 37° C. and 5% CO2. […]
endpoint-name: EC50 (nM)
Give just the number in nM; leave the unit off.

compound="CC(c1n[nH]c(=O)c2cc(F)c(F)cc12)N(C)C(=O)Nc1ccc(F)c(Cl)c1 (racemic)" readout_value=23
compound="CC(c1n[nH]c(=O)c2cc(F)c(F)cc12)N(C)C(=O)c1cc2cc(F)c(F)cc2[nH]1 (racemic)" readout_value=40
compound="CC(C)CN(C(=O)Nc1ccc(F)cc1)C(C)c1n[nH]c(=O)c2cc(Cl)ccc12 (racemic)" readout_value=40

Query string: I have this compound here, CC(c1n[nH]c(=O)c2cc(F)c(F)cc12)N(C)C(=O)c1cc2c(Cl)cccn2c1 (racemic) , and I need its recorded EC50.
Result string: 60

Query string: Cool, now Cc1c(C(=O)N(C)C(C)c2n[nH]c(=O)c3cc(F)c(F)cc23)[nH]c2ccccc12 (racemic)
Result string: 440

Query string: Cool, now CC(c1n[nH]c(=O)c2cc(F)c(F)cc12)N(C)C(=O)c1cc2c(F)cc(F)cc2[nH]1 (racemic)
Result string: 50

====

Test system: HBV rcDNA in HepDE19 cells
assay-comment: HepDE19 assay with bDNA quantitation of HBV rcDNA
Format: cell-based, hepatitis B virus
conditions-used: Hepatitis B virus, HepDE19, 168 h, HepDE19 cells, 7 day incubation, rcDNA measured by Quantigene 2.0 bDNA assay; top concentration 25 µM; read-out: DE-19bDNA EC50
So basically, if EC50 comes in under 30 nM it's met, and if it's 30 nM or more it's not met.

compound="CC(c1n[nH]c(=O)c2cc(F)c(F)cc12)N(C)C(=O)Nc1ccc(F)c(C#N)c1 (racemic)" label_class="not met"
compound="CC(c1nn(C)c(=O)c2cc(F)c(F)cc12)N(CCCO)C(=O)Nc1ccc(F)cc1 (racemic)" label_class="not met"
compound="CC(c1n[nH]c(=O)c2cc(Cl)ccc12)N(C)C(=O)Nc1ccc(F)c(Cl)c1 (racemic)" label_class="not met"
compound="CC(c1nn(C)c(=O)c2cc(F)c(F)cc12)N(C)C(=O)Nc1ccc(F)c(Cl)c1 (racemic)" label_class=met
compound="CC(c1n[nH]c(=O)c2cc(F)c(F)cc12)N(C)C(=O)c1cc2c(F)cccn2c1 (racemic)" label_class="not met"

Query string: Problem: For the compound CC(c1n[nH]c(=O)c2cc(F)c(F)cc12)N(C)C(=O)c1ccc(Br)cc1 (racemic) , is EC50 under 30 nM?
Result string: not met

Query string: Cool, now CCN(C(=O)c1cc2ccccc2[nH]1)C(C)c1n[nH]c(=O)c2cc(F)c(F)cc12 (racemic)
Result string: not met

Query string: Cool, now CC(c1n[nH]c(=O)c2cc(F)c(F)cc12)N(C)C(=O)c1ccc(C(F)(F)F)c(F)c1 (racemic)
Result string: not met

Query string: Cool, now CC(C)CN(C(=O)Nc1ccc(F)c(Cl)c1)C(C)c1nn(C)c(=O)c2cc(F)c(F)cc12 (racemic)
Result string: met

====

Tested on: HBV rcDNA in HepDE19 cells
assay-comment: HepDE19 assay with bDNA quantitation of HBV rcDNA
Assay type: cell-based, hepatitis B virus
conditions-used: Hepatitis B virus, HepDE19, 168 h, read-out: DE-19bDNA EC50
endpoint-name: EC50

molecule="CC(C)CN(C(=O)Nc1ccccc1)C(C)c1n[nH]c(=O)c2cc(F)c(F)cc12 (single isomer, unassigned) [Compound 39]" endpoint_name=EC50 readout_value="3700 nM"
molecule="CC(C)CN(C(=O)NC1CCCC1)C(C)c1nn(C)c(=O)c2cc(F)c(F)cc12 (racemic)" endpoint_name=EC50 readout_value="6900 nM"
molecule="CC(c1n[nH]c(=O)c2cc(F)c(F)cc12)N(C)C(=O)c1ccc(Cl)cc1 (racemic)" endpoint_name=EC50 readout_value="200 nM"
molecule=C[C@H](c1n[nH]c(=O)c2cc(F)c(F)cc12)N(C)C(=O)Nc1cc(F)c(F)c(F)c1 endpoint_name=EC50 readout_value="25 nM"
molecule=C[C@@H](c1nn(C)c(=O)c2cc(F)c(F)cc12)N(C)C(=O)Nc1ccc(F)cc1 endpoint_name=EC50 readout_value="8200 nM"
molecule=C[C@H](c1n[nH]c(=O)c2cc(F)c(F)cc12)N(C)C(=O)c1cc2sc(Cl)cc2[nH]1 endpoint_name=EC50 readout_value="30 nM"
molecule="CC(c1n[nH]c(=O)c2cc(F)c(F)cc12)N(C)C(=O)c1ccccc1 (racemic)" endpoint_name=EC50 readout_value="17700 nM"
molecule="CC(C)CN(C(=O)Nc1ccccc1)C(C)c1n[nH]c(=O)c2cc(F)c(F)cc12 (racemic) [Compound 28]" endpoint_name=EC50 readout_value="12 nM"
molecule="CC(C)CN(C(=O)Nc1ccccc1)C(C)c1nn(C)c(=O)c2cc(F)c(F)cc12 (racemic)" endpoint_name=EC50 readout_value="10 nM"
molecule=C[C@H](c1n[nH]c(=O)c2cc(F)c(F)cc12)N(C)C(=O)Nc1ccc(F)cc1 endpoint_name=EC50 readout_value="59 nM"

Query string: I have this molecule here, C[C@H](c1n[nH]c(=O)c2cc(F)c(F)cc12)N(C)C(=O)c1cc2c([nH]1)CCCC2 , and I need its recorded EC50.
Result string: 120 nM
